Assignment: determine reported pIC50 for the given compounds.
- Tested on: HeLa
- Procedure Summary: Anticancer activity against human HeLa cells assessed as inhibition of cell proliferation measured after 24 hrs by MTT assay
- Format: functional, cell-based
Numbers only, as −log10 of the molar value.

// below: answered compounds
Nc1nc(Cl)c2cnn(Cc3ccc(Br)cc3F)c2n1 ... 4.65
COc1nc2ccccc2cc1-c1nc2c(cnn2-c2ccc(Br)cc2)c(=O)[nH]1 ... 5.06

Shift focus to the following entry.
# pIC50 (compound: `CSc1c(C#N)c(N)nc2c(/N=N/N3C(=O)c4ccccc4C3=O)c(O)nn12` ) is 5.25

---

- Measured On: UniProtKB O76074
Measured Quantity: IC50 (µM)
Numbers only, in µM.

# IC50 (compound: `COc1nc2ccccc2cc1-c1nc2c(cnn2-c2ccc(Br)cc2)c(=O)[nH]1` ) is 1.57

---

- System: MCF7
- Procedure Summary: Anticancer activity against human MCF7 cells assessed as inhibition of cell proliferation measured after 24 hrs by MTT assay
- Format: functional, cell-based
- Condition Summary: MCF7, 24 h
Assignment: determine reported pIC50 for the given compounds.
Numbers only, as −log10 of the molar value.

// below: answered compounds
COc1nc2ccccc2cc1-c1nc2c(cnn2-c2ccc(Br)cc2)c(=O)[nH]1 ... 5.18
CSc1c(C#N)c(N)nc2c(/N=N/N3C(=O)c4ccccc4C3=O)c(O)nn12 ... 5.38

Shift focus to the following entry.
Case `Nc1nc(Cl)c2cnn(Cc3ccc(Br)cc3F)c2n1` , MCF7, pIC50 recorded as 4.86

---

- Tested on: MCF7
- Procedure Summary: Anticancer activity against human MCF7 cells assessed as inhibition of cell proliferation measured after 48 hrs by MTT assay
- Type: functional, cell-based
- Condition Summary: MCF7, 48 h
Measured Quantity: pIC50
Numbers only, as −log10 of the molar value.

# pIC50 (compound: CC1=CC(C)Nc2c(C(=O)Nc3c(C)cccc3C)c(Nc3ccccc3)nn21 (stereo unspecified) ) is 5.11

---

- Measured On: UniProt:Q06187
- Sequence (Q06187 whole entry): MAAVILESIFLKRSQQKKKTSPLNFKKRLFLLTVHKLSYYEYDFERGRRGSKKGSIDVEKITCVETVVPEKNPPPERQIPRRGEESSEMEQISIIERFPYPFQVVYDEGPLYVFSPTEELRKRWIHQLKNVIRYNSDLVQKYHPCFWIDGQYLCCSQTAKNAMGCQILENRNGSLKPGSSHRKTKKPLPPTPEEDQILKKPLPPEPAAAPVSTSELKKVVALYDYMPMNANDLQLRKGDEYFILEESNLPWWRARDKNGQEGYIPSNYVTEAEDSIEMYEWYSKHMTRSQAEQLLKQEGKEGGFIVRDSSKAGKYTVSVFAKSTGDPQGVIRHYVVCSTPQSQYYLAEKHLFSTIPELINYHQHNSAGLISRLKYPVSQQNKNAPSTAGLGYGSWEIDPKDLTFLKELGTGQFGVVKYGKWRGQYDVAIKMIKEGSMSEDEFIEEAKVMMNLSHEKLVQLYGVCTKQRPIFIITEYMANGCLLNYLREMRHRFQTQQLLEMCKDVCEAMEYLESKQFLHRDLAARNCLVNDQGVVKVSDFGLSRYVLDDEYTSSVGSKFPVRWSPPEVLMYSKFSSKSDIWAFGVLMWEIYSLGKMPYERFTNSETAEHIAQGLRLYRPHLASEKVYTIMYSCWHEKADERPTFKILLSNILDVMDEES
Measured Quantity: pIC50
Answers are plain numbers, as −log10 of the molar value.

# pIC50 (compound: C=CC(=O)N1CCCC(N2NC(c3cc(C(C)(C)O)n(C)n3)c3c(N)ncnc32)C1 (stereo unspecified) ) is 8.10

---

- Test system: JeKo-1
- Procedure Summary: Anticancer activity against human JeKo-1 cells assessed as inhibition of cell proliferation measured after 72 hrs by Cell Titer-Glo Luminescent
- Assay type: functional, cell-based
- Condition Summary: JeKo-1, 72 h
pIC50: −log10 of the molar value.
Measured Quantity: pIC50

# pIC50 (compound: `O=C(NCc1cc(C(F)(F)F)cc(C(F)(F)F)c1)NC1CCN(c2ncnc3[nH]ncc23)CC1` ) is > 6.00

---

- Measured On: Epidermal growth factor receptor (Homo sapiens, UniProt P00533)
- Sequence (P00533 whole entry): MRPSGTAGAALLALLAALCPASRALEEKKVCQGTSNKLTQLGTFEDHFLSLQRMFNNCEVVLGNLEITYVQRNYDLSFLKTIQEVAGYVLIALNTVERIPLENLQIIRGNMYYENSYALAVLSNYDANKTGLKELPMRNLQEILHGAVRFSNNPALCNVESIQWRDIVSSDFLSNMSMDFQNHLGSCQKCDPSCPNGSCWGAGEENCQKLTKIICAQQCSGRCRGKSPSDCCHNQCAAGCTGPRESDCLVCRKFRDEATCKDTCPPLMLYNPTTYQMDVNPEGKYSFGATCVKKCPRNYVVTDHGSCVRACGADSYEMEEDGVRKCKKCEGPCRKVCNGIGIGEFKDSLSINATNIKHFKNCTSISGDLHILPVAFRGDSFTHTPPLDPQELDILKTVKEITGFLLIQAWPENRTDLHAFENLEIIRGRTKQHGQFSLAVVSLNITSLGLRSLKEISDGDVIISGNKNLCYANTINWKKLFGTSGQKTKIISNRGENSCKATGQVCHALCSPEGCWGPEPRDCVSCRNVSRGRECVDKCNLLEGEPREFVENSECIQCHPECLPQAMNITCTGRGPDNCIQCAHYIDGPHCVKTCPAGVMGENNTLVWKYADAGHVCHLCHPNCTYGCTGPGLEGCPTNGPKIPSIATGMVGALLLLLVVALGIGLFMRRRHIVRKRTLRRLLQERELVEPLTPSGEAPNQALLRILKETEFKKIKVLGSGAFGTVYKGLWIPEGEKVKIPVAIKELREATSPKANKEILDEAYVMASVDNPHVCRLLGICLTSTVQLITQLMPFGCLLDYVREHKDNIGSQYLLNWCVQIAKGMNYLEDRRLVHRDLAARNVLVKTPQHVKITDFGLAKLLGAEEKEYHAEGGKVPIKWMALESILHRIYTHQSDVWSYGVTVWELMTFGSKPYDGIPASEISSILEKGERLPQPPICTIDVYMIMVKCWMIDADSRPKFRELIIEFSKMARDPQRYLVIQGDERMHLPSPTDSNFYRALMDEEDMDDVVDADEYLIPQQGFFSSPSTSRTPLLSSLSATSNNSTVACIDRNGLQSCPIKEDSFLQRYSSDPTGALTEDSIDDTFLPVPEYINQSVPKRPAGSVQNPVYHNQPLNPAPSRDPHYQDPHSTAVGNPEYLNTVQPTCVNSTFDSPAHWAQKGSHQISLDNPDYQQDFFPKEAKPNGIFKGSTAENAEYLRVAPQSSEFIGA
Measured Quantity: IC50 (µM)
Numbers only, in µM.

Case `COc1nc2ccccc2cc1-c1nc2c(cnn2-c2ccc(Br)cc2)c(=O)[nH]1` , Epidermal growth factor receptor (Homo sapiens, UniProt P00533), IC50 recorded as 5.83
